Here the recorded melting point is given for each entry.

Sample answers from the record:
[[record]]
molecule = "CCc1cc(CC)c(-c2c(O)c(C)nn(C)c2=O)c(CC)c1Br"
observed = "225 to 226 °C"

[[record]]
molecule = "COC(=O)C(c1ccc(O)cc1)N1CC(NC(=O)Cc2ccccc2)C1=O (stereo not given)"
observed = "172 to 175 °C"

[[record]]
molecule = "Cn1c(=O)cc(-c2cccc(Cl)c2)c2cc(C(=O)c3ccc(Cl)cc3)ccc21"
observed = "155 °C"


Entry O=C1NCC(c2ccc3[nH]c(-c4ccncc4)cc3c2)=NN1 , melting point reported as 313 to 316 °C

Entry COCCNC(=O)c1ccc(C)c(-n2c(C)cc(OCc3ccccc3CNC(=O)Nc3cc(C(C)(C)C)nn3-c3ccc(Cl)c(O)c3)c(Cl)c2=O)c1 , melting point reported as 182 to 183 °C

Entry COC(=O)N1CCCSC1=C[N+](=O)[O-] , melting point reported as 93 to 95 °C

Entry COCC(=O)OC(n1cc(C#N)c(-c2cccc(Cl)c2Cl)c1)C(Cl)(Cl)Cl (stereo not given) , melting point reported as 88 to 90 °C

Entry CCNS(=O)(=O)CC(=O)C1=CNC(C)=C(C(=O)OC)C1c1cccc([N+](=O)[O-])c1 (stereo not given) , melting point reported as 185 to 187 °C

Entry CCn1c(=O)c2[nH]c(/C=C/c3cc(OC)cc(OC)c3)nc2n(CC)c1=O , melting point reported as > 270 °C
